- system-under-test: PCSK9 (Homo sapiens (Human))
- protocol-text: PCSK9 Alexa FRET Plus assay (displacement of AlexaFluor647 tagged cyclic peptide Reagent B)
- Type: binding
- experimental-conditions: Alexa FRET Plus, 0.5 nM PCSK9, 960 nM AF cyclic peptide Reagent B; read-out: IC50
Starred links: 1 amine or outer side, 2 acyl side, 3 side chain; linkers in the order of their positions; H or OH if unused. Positions of bridges follow the written chain, without caps; N, C: chain ends. Non-standard residues stand in square brackets, D forms with d. Residues, ends and D or L forms follow the SMILES beside them. *: point of attachment. Trp(5-F) = N[C@@H](Cc1c[nH]c2ccc(F)cc12)C(=O)O; Phe(4-CH2NH2) = NCc1ccc(C[C@H](N)C(=O)O)cc1; Heptanedioyl = O=C(CCCCCC(=O)[*:2])[*:1]; Pro(cis-4-F) = O=C(O)[C@@H]1C[C@H](F)CN1; AEF = NCCOc1ccc(C[C@H](N)C(=O)O)cc1; αMeP = C[C@@]1(C(=O)O)CCCN1; Propionyl = CCC(=O)*
The following compounds are listed with their measured IC50 values.

# compound, IC50
measured = [
    ("CCC(=O)N[C@H]1CC(=O)NCCOc2ccc(cc2)C[C@@H](C(N)=O)NC(=O)[C@]2(C)CCCN2C(=O)[C@H](Cc2ccc(OC)cc2)NC(=O)[C@H]([C@@H](C)O)NC(=O)[C@@H]2C[C@H](F)CN2C(=O)[C@H](Cc2c[nH]c3ccc(F)cc23)NC(=O)[C@H](Cc2c[nH]c3ccc(F)cc23)NC(=O)[C@@H](C)NC(=O)[C@H](CCCCN)NC1=O [Compound 118] (Propionyl-DK[dA][Trp(5-F)][Trp(5-F)][Pro(cis-4-F)]TY(Me)[αMeP][AEF]-NH2; lactam 1-10)", "500 to 5000 nM"),
    ("COc1ccc(C[C@@H]2NC(=O)[C@H](Cc3cnc[nH]3)NC(=O)[C@H](CC(=O)O)NC(=O)[C@H](Cc3c[nH]c4ccc(F)cc34)NC(=O)[C@H](Cc3c[nH]c4ccc(F)cc34)NC(=O)[C@@H](C)NC(=O)CCCCCC(=O)NCc3ccc(cc3)C[C@@H](C(N)=O)NC(=O)[C@]3(C)CCCN3C2=O)cc1 [Compound 440] ([dA][Trp(5-F)][Trp(5-F)]DHY(Me)[αMeP][Phe(4-CH2NH2)]-NH2; linker N-8 via Heptanedioyl)", "100 to 500 nM"),
]

---

- system-under-test: PCSK9 (Homo sapiens (Human), UniProt Q8NBP7)
- Sequence (Q8NBP7 153-692): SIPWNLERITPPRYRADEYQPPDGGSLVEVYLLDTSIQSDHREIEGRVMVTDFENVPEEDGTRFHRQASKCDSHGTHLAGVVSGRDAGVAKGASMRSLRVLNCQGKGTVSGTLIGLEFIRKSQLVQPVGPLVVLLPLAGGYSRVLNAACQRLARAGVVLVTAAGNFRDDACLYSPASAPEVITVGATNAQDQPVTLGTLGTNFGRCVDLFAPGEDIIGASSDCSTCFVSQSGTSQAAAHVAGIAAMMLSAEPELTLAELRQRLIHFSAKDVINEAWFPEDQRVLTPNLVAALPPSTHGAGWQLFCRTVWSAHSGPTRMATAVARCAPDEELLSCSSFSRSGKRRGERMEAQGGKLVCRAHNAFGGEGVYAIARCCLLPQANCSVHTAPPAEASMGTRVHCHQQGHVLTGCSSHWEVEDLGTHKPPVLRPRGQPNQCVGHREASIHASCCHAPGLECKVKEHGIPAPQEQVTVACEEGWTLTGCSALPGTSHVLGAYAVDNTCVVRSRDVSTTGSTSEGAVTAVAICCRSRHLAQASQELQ
- protocol-text: PCSK9 Alexa FRET Standard assay (displacement of AlexaFluor647 tagged cyclic peptide Reagent A)
- Format: binding
- experimental-conditions: PCSK9 Alexa FRET Standard assay, 0.5 nM PCSK9, 20 nM AF cyclic peptide Reagent A; read-out: IC50
Starred links: 1 amine or outer side, 2 acyl side, 3 side chain; linkers in the order of their positions; H or OH if unused. Positions of bridges follow the written chain, without caps; N, C: chain ends. Non-standard residues stand in square brackets, D forms with d. Residues, ends and D or L forms follow the SMILES beside them. Trp(5-F) = N[C@@H](Cc1c[nH]c2ccc(F)cc12)C(=O)O; Pro(cis-4-F) = O=C(O)[C@@H]1C[C@H](F)CN1; mXylylene = c1cc(C[*:1])cc(C[*:2])c1; AEF = NCCOc1ccc(C[C@H](N)C(=O)O)cc1; Adipoyl = O=C(CCCCC(=O)[*:2])[*:1]; aThr = C[C@H](O)[C@H](N)C(=O)O; αMeP = C[C@@]1(C(=O)O)CCCN1; Mpa = O=C(O)CCS
The entries below come with measured IC50 values attached.
value-kind: IC50

# molecule, value-kind, value
measured = [
    ("CC[C@H](C)[C@@H]1NC(=O)[C@@H]2CCCN2C(=O)[C@H](Cc2c[nH]c3ccc(F)cc23)NC(=O)[C@H](Cc2c[nH]c3ccc(F)cc23)NC(=O)[C@@H](C)NC(=O)[C@H](CCCCN)NC(=O)CCSCc2cccc(c2)CSC[C@@H](C(N)=O)NC(=O)[C@]2(C)CCCN2C(=O)[C@H](Cc2ccc(OC)cc2)NC1=O [Compound 007] ([Mpa]K[dA][Trp(5-F)][Trp(5-F)]PIY(Me)[αMeP]C-NH2; linker 1-10 via mXylylene)", "IC50", "0.1 to 1 µM"),
    ("COc1ccc(C[C@@H]2NC(=O)[C@H]([C@H](C)O)NC(=O)[C@@H]3C[C@H](F)CN3C(=O)[C@H](Cc3c[nH]c4ccc(F)cc34)NC(=O)[C@H](Cc3c[nH]c4ccc(F)cc34)NC(=O)[C@@H](C)NC(=O)CCCCC(=O)NCCOc3ccc(cc3)C[C@@H](C(N)=O)NC(=O)[C@]3(C)CCCN3C2=O)cc1 [Compound 099] ([dA][Trp(5-F)][Trp(5-F)][Pro(cis-4-F)][aThr]Y(Me)[αMeP][AEF]-NH2; linker N-8 via Adipoyl)", "IC50", "21 to 50 µM"),
]

---

- system-under-test: PCSK9 (Homo sapiens (Human), UniProt Q8NBP7)
- protocol-text: PCSK9 Alexa FRET Standard assay (displacement of AlexaFluor647 tagged cyclic peptide Reagent A)
- Assay type: binding
- experimental-conditions: PCSK9 Alexa FRET Standard assay, 0.5 nM PCSK9, 20 nM AF cyclic peptide Reagent A; read-out: IC50
pIC50: −log10 of the molar value. Starred links: 1 amine or outer side, 2 acyl side, 3 side chain; linkers in the order of their positions; H or OH if unused. Positions of bridges follow the written chain, without caps; N, C: chain ends. Non-standard residues stand in square brackets, D forms with d. Residues, ends and D or L forms follow the SMILES beside them. *: point of attachment. NHCH2C6H4(p)CH2CH2NH = c1cc(CN[*:1])ccc1CCN[*:2]; Trp(5-F) = N[C@@H](Cc1c[nH]c2ccc(F)cc12)C(=O)O; Pro(cis-4-F) = O=C(O)[C@@H]1C[C@H](F)CN1; AEF = NCCOc1ccc(C[C@H](N)C(=O)O)cc1; αMeP = C[C@@]1(C(=O)O)CCCN1; Glycolyl = O=C(CO)*

# compound, pIC50
data = [
    ("COc1ccc(C[C@@H]2NC(=O)[C@H]([C@@H](C)O)NC(=O)[C@@H]3C[C@H](F)CN3C(=O)[C@H](Cc3c[nH]c4ccc(F)cc34)NC(=O)[C@H](Cc3c[nH]c4ccc(F)cc34)NC(=O)[C@@H](C)NC(=O)[C@H](CCCCN)NC(=O)[C@@H](NC(C)=O)CC(=O)NCc3ccccc3C[C@@H](C(N)=O)NC(=O)[C@]3(C)CCCN3C2=O)cc1", "4.92 to 6.00"),
    ("COc1ccc(C[C@@H]2NC(=O)[C@H]([C@@H](C)O)NC(=O)[C@@H]3C[C@H](F)CN3C(=O)[C@H](Cc3c[nH]c4ccc(F)cc34)NC(=O)[C@H](Cc3c[nH]c4ccc(F)cc34)NC(=O)[C@@H](C)NC(=O)[C@H](CCCCN)NC(=O)[C@@H](NC(=O)CO)CC(=O)NCCOc3ccc(cc3)C[C@@H](C(N)=O)NC(=O)[C@]3(C)CCCN3C2=O)cc1 [Compound 116] (Glycolyl-DK[dA][Trp(5-F)][Trp(5-F)][Pro(cis-4-F)]TY(Me)[αMeP][AEF]-NH2; lactam 1-10)", "4.30 to 4.68"),
    ("COc1ccc(C[C@@H]2NC(=O)[C@H](Cc3cnc[nH]3)NC(=O)[C@H](CC(=O)O)NC(=O)[C@H](Cc3c[nH]c4ccc(F)cc34)NC(=O)[C@H](Cc3c[nH]c4ccc(F)cc34)NC(=O)[C@@H](C)NC(=O)[C@H](CCCCN)NC(=O)[C@@H](NC(C)=O)CC(=O)NCc3ccc(cc3)CCNC(=O)[C@]3(C)CCCN3C2=O)cc1 [Compound 411] (Ac-DK[dA][Trp(5-F)][Trp(5-F)]DHY(Me)[αMeP]; linker 1-C via NHCH2C6H4(p)CH2CH2NH)", "4.92 to 6.00"),
]

---

- system-under-test: PCSK9 (Homo sapiens (Human), UniProt Q8NBP7)
- protocol-text: PCSK9 Alexa FRET Standard assay (displacement of AlexaFluor647 tagged cyclic peptide Reagent A)
- Format: binding
- experimental-conditions: PCSK9 Alexa FRET Standard assay, 0.5 nM PCSK9, 20 nM AF cyclic peptide Reagent A; read-out: IC50
Starred links: 1 amine or outer side, 2 acyl side, 3 side chain; linkers in the order of their positions; H or OH if unused. Positions of bridges follow the written chain, without caps; N, C: chain ends. Non-standard residues stand in square brackets, D forms with d. Residues, ends and D or L forms follow the SMILES beside them. Ala(imidazol-2-yl) = N[C@@H](Cc1ncc[nH]1)C(=O)O; Trp(5-F) = N[C@@H](Cc1c[nH]c2ccc(F)cc12)C(=O)O; X4 = O=C(CCSCc1cccc(CSCCN[*:1])c1)[*:2]; mXylylene = c1cc(C[*:1])cc(C[*:2])c1; αMeP = C[C@@]1(C(=O)O)CCCN1; 3Amb = NCc1cccc(C(=O)O)c1; Dap = NC[C@H](N)C(=O)O; AEEA = NCCOCCOCC(=O)O; Mpa = O=C(O)CCS

# molecule, IC50
records = [
    ("C[C@H]1NC(=O)[C@H](CCCCN)NC(=O)CCSCc2cccc(c2)CSC[C@@H](C(N)=O)NC(=O)[C@]2(C)CCCN2C(=O)[C@H](Cc2ccc(O)cc2)NC(=O)c2cccc(c2)CNC(=O)[C@H](Cc2c[nH]c3ccc(F)cc23)NC(=O)[C@H](Cc2c[nH]c3ccc(F)cc23)NC1=O [Compound 089] ([Mpa]K[dA][Trp(5-F)][Trp(5-F)][3Amb]Y[αMeP]C-NH2; linker 1-9 via mXylylene)", "0.11 to 100 nM"),
    ("COc1ccc(C[C@@H]2NC(=O)[C@H]([C@@H](C)O)NC(=O)[C@@H]3C[C@H](F)CN3C(=O)[C@H](Cc3c[nH]c4ccc(F)cc34)NC(=O)[C@H](Cc3c[nH]c4ccc(F)cc34)NC(=O)[C@@H](C)NC(=O)CNC(=O)CCCCNCc3ccc(cc3)C[C@@H](C(N)=O)NC(=O)[C@]3(C)CCCN3C2=O)cc1 [Compound 130]", "0.11 to 100 nM"),
    ("COc1ccc(C[C@@H]2NC(=O)[C@H](Cc3ncc[nH]3)NC(=O)[C@H](CC(=O)O)NC(=O)[C@H](Cc3c[nH]c4ccc(F)cc34)NC(=O)[C@H](Cc3c[nH]c4ccc(F)cc34)NC(=O)[C@@H](C)NC(=O)[C@H](CNC(=O)COCCOCCN)NC(=O)CCSCc3cccc(c3)CSCCNC(=O)[C@]3(C)CCCN3C2=O)cc1 [Compound 447] (cyclo(D[Ala(imidazol-2-yl)]Y(Me)[αMeP][X4][Dap](AEEA)[dA][Trp(5-F)][Trp(5-F)]))", "100 to 1000 nM"),
]
